Values were extracted from patent US9624208B2.

# TARGET_DESC: human Nav1.7 (Homo sapiens, UniProt Q15858)
# Construct: expressed in transfected cells
# Sequence (Q15858 whole entry): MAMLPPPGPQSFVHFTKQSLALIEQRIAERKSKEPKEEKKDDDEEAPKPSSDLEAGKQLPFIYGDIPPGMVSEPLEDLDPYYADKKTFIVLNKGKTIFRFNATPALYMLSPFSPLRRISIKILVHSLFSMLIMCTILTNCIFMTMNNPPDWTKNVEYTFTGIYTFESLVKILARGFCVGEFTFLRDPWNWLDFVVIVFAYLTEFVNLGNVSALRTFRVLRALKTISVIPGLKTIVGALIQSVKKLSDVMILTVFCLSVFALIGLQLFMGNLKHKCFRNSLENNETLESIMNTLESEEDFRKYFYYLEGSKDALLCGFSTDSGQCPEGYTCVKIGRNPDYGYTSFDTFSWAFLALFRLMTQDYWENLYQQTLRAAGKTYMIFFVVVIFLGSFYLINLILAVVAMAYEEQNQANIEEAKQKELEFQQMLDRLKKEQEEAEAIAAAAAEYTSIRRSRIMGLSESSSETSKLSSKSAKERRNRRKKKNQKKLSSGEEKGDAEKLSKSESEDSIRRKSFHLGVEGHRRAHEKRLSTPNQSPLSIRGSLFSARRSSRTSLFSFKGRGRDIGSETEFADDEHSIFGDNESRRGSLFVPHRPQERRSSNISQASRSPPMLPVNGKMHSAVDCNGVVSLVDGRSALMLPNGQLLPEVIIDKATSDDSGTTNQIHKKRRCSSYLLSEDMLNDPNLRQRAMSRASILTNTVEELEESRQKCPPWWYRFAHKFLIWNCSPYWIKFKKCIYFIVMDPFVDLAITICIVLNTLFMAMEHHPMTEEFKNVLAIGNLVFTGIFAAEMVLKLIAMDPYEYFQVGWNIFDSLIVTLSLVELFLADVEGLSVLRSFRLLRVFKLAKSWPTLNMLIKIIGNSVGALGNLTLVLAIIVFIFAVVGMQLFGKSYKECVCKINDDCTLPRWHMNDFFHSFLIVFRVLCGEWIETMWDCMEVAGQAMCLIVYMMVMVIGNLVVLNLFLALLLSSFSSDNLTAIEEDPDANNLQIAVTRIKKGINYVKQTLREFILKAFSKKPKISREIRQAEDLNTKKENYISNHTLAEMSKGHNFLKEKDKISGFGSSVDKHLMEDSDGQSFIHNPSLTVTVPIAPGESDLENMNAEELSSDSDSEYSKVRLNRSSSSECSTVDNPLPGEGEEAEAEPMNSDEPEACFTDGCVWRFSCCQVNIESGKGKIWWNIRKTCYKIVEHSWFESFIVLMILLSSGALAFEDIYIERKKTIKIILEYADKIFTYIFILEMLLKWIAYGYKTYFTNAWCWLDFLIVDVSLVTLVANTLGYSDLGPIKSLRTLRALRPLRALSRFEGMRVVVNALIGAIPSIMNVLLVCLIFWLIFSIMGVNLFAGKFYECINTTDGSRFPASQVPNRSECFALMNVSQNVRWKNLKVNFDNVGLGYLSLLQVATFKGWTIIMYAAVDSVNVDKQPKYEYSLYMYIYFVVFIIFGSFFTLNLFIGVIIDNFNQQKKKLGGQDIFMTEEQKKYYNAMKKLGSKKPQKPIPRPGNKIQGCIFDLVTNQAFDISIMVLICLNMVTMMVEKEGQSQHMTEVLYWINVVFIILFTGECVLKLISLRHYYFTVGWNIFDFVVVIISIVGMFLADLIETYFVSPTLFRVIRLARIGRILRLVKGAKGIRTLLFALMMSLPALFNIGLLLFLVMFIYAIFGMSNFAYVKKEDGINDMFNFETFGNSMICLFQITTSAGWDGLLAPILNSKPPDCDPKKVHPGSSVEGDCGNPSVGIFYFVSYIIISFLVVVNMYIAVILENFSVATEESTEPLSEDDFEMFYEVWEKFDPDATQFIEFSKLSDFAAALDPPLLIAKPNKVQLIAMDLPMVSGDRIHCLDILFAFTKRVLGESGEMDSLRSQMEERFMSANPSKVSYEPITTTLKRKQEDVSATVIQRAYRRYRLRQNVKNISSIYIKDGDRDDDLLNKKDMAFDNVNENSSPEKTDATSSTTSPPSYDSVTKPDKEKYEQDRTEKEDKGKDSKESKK
# EXPERIMENTAL_PROTOCOL: PatchXpress sodium current measurement, inactivated state block, Nav1.7
# Assay type: cell-based
# COND: channels stably expressed in HEK 293 cells, double-pulse protocol, 22° C., read-out: potency for the Nav 1.7 sodium ion channel (1.7=)
# Description: Cell Based Assays for Nav 1.7 and Nav 1.5 Activity Compounds were tested on human Nav1.7 and Nav1.5 channels stably expressed in HEK 293 cells. Sodium Current Measurements on the PatchXpress 7000: To measure inactivated state block of sodium channels, test compounds were characterized in an automated PatchXpress® assay (Molecular Devices) using a double-pulse protocol on human Nav1.7 and Nav1.5 channels stably expressed in HEK 293 cells. […] IC50 values were determined by fitting to the Hill equation.
pIC50: −log10 of the molar value.
READOUT: pIC50

Take a look at these entries with their results.
{"COMPOUND": "CC(N)C#Cc1cccc([C@@H](C)n2c(=O)oc3cc(S(=O)(=O)Nc4cccc(F)n4)c(F)cc32)c1 (stereo partly drawn)", "READOUT": "pIC50", "TEST_RESULT": 6.05}
{"COMPOUND": "C[C@H](c1ccccc1N1CCNCC1)n1c(=O)oc2cc(S(=O)(=O)Nc3cccc(F)n3)c(F)cc21", "READOUT": "pIC50", "TEST_RESULT": 6.82}
{"COMPOUND": "C[C@H](c1ccccc1C#CCC(C)(C)N)n1c(=O)oc2cc(S(=O)(=O)Nc3cccc(F)n3)c(F)cc21", "READOUT": "pIC50", "TEST_RESULT": 6.97}
{"COMPOUND": "C[C@H](c1cccc(C#CC2CCCC2N)c1)n1c(=O)oc2cc(S(=O)(=O)Nc3cccc(F)n3)c(F)cc21 (stereo partly drawn)", "READOUT": "pIC50", "TEST_RESULT": 6.93}
{"COMPOUND": "Cc1cc2c(cc1S(=O)(=O)Nc1cccc(F)n1)oc(=O)n2Cc1cccc2c1CC(N)CC2 (single isomer, unassigned) [Ex17-6]", "READOUT": "pIC50", "TEST_RESULT": 7.92}

(1) C[C@H](c1cccc(C#CCN2CCNCC2)c1)n1c(=O)oc2cc(S(=O)(=O)Nc3cccc(F)n3)c(F)cc21
(2) C[C@H](c1ccccc1C1(F)CNC1)n1c(=O)oc2cc(S(=O)(=O)Nc3cccc(F)n3)c(F)cc21
(3) Cc1cc2c(cc1S(=O)(=O)Nc1cccc(F)n1)oc(=O)n2[C@H](C)c1cccc(C#CCN)c1C
(4) C[C@H](c1cccc2c1CNCC2)n1c(=O)oc2cc(S(=O)(=O)Nc3ccc(F)cn3)c(F)cc21.Cl [Ex15-5, hydrochloride]
(5) Cl.O=c1oc2cc(S(=O)(=O)Nc3cccc(F)n3)c(F)cc2n1Cc1cccc2c1CNCC2F (racemic) [Ex5-9, hydrochloride]
Problem: Falling order of pIC50, please. List labels; respect the requested ordering.
Solution: 2, 3, 1, 4, 5

(I) C[C@H](c1cccc(C#CCN)c1)n1c(=O)oc2cc(S(=O)(=O)Nc3cccc(F)n3)c(F)cc21
(II) C[C@H](c1ccccc1C#CCN1CCCC1)n1c(=O)oc2cc(S(=O)(=O)Nc3cccc(F)n3)c(F)cc21
Problem: Out of I and II , name the one with the higher pIC50. Answer format: the label of the selected item.
Solution: I
(I: 6.81, II: 6.36)

(P) Cc1cc2c(cc1S(=O)(=O)Nc1cccc(F)n1)oc(=O)n2[C@H](C)c1cccc(C#CCN2CCC2)c1
(Q) C[C@H](c1ccccc1C1=CCC(N)CC1)n1c(=O)oc2cc(S(=O)(=O)Nc3cccc(F)n3)c(F)cc21 (stereo partly drawn)
Problem: For the two items P and Q , which reports the higher pIC50 value? # answer = label of selected item
Solution: P
